This section presents binders with their documented mean fluorescence relative to chimeric antibody values.
# SYSTEM UNDER TEST: T1, pig CD47 (pig, UniProt Q9GKE8 19-303)
# T1 construct: whole, on cells; also called CD47 on pig red blood cells
# T1 sequence (looked up): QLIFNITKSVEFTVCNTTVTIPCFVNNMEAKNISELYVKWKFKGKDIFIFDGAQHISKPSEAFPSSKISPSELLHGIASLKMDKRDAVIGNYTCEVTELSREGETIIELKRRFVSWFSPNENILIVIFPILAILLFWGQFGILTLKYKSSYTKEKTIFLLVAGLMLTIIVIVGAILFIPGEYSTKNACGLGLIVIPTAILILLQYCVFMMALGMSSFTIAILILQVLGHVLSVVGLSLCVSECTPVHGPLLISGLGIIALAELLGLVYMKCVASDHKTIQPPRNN
# EXPERIMENTAL PROTOCOL: flow cytometry on RBCs, antibody 10 ng/ml

Query: Tell me the measured mean fluorescence relative to chimeric antibody of pVxK7b-037-hum14-LC/pVxK7b-037-hum14-HC (antibody, human IgG1, V domains shown, Full-length human IgG1/kappa in CHO supernatant; Variable entries end within framework 4 (...FGQG / ...WGQG); also called Clone 14) VH: QVQLQESGPGLVKPSQTLSLTCTVSGYTFTNYYVFWVRQARGQRLEWIGDINPVNGDTNFNEKFKNRVTISADKSISTAYLQWSSLKASDTAMYYCARGGYTMDYWGQG VL: DVVMTQSPLSLPVTLGQPASISCRSSQSLVHSNGNTYLHWYQQKPGKAPKLLIYKVSYRFSGVPDRFSGSGSGTDFTLKISRVEAEDVGVYYCSQNTHVPRTFGQG , please.
Result: 1.4 fold of chimera

Query: Further, for pVxK7b-037-hum01-LC/pVxK7b-037-hum01-HC (antibody, human IgG1, V domains shown, Full-length human IgG1/kappa in CHO supernatant; Variable entries end within framework 4 (...FGQG / ...WGQG); also called Clone 1) VH: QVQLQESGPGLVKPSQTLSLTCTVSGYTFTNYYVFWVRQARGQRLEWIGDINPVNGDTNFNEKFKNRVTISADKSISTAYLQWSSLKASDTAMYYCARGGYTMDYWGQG VL: DIVMTQTPLSLPVTPGEPASISCRSSQSLVHSNGNTYLHWYQQKPGKAPKLLIYKVSYRFSGVPDRFSGSGSGTDFTLKISRVEAEDVGVYYCSQNTHVPRTFGQG ?
Result: 1.3 fold of chimera

The measured values listed here are drawn from patent US20140161799A1.
